Tested on: 435261-313-R-J1-PDC tumor spheroid viability;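 also: spheroids exposed to compounds for 7 days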
measurement_description: Anticancer human tumor 435261-313-R-J1-PDC patient-derived colon adenocarcinoma cell line growth inhibition [PI3K]; active = viability on the fitted dose curve at most 10% of control; inactive = the rest
test_parameters: second compound 0.316 µM; first compound 3.16 µM; spheroids with HUVEC and MSC
Description: Combinatorial screen of targeted agents with the PI3K inhibitors inavolisib, alpelisib, duvelisib, and copanlisib in multi-cell type tumor spheroids A high-throughput screen of multi-cell type tumor spheroids was designed to identify active combinations of targeted small molecules and PI3K pathway inhibitors. […] Compounds. […] If the clinical Cmax for an agent had not been determined, the highest concentration tested was 10 microM. […]
Result category, one only: active, inactive

Reference set (6 entries):
- molecule: "CC(Cn1ccc(-c2ccc(C#N)c(Cl)c2)n1)NC(=O)c1cc(C(C)O)[nH]n1 (stereo not given) + CC(Nc1ccc2c(c1)OCCn1cc(N3C(=O)OCC3C(F)F)nc1-2)C(N)=O"
  answer_label: "inactive"
- molecule: "CC(C)NCC(C(=O)N1CCN(c2ncnc3c2C(C)CC3O)CC1)c1ccc(Cl)cc1 (stereo not given) + COc1c(OCCCN2CCOCC2)ccc2c3n(c(=NC(=O)c4cnc(N)nc4)nc12)CCN3"
  answer_label: "active"
- molecule: "CCCS(=O)(=O)Nc1ccc(F)c(C(=O)c2c[nH]c3ncc(-c4ccc(Cl)cc4)cc23)c1F + COc1c(OCCCN2CCOCC2)ccc2c3n(c(=NC(=O)c4cnc(N)nc4)nc12)CCN3"
  answer_label: "active"
- molecule: "CC1(C)CCC(CN2CCN(c3ccc(C(=O)NS(=O)(=O)c4ccc(NCC5CCOCC5)c([N+](=O)[O-])c4)c(Oc4cnc5[nH]ccc5c4)c3)CC2)=C(c2ccc(Cl)cc2)C1 + Cc1nc(NC(=O)N2CCCC2C(N)=O)sc1-c1ccnc(C(C)(C)C(F)(F)F)c1"
  answer_label: "inactive"
- molecule: "CC(Cn1ccc(-c2ccc(C#N)c(Cl)c2)n1)NC(=O)c1cc(C(C)O)[nH]n1 (stereo not given) + Cc1nc(NC(=O)N2CCCC2C(N)=O)sc1-c1ccnc(C(C)(C)C(F)(F)F)c1"
  answer_label: "inactive"
- molecule: "CCCS(=O)(=O)Nc1ccc(F)c(C(=O)c2c[nH]c3ncc(-c4ccc(Cl)cc4)cc23)c1F + Cc1nc(NC(=O)N2CCCC2C(N)=O)sc1-c1ccnc(C(C)(C)C(F)(F)F)c1"
  answer_label: "inactive"

Lookup: // param item: C[C@@H](NC(=O)c1ncnc(N)c1Cl)c1ncc(C(=O)Nc2cc(C(F)(F)F)c(Cl)cn2)s1 + CC(Nc1ccc2c(c1)OCCn1cc(N3C(=O)OCC3C(F)F)nc1-2)C(N)=O ; yields the recorded call
Found: inactive

Lookup: // param item: CNC(=O)c1ccc(N2C(=S)N(c3ccc(C#N)c(C(F)(F)F)c3)C(=O)C2(C)C)cc1F + CC(Nc1ccc2c(c1)OCCn1cc(N3C(=O)OCC3C(F)F)nc1-2)C(N)=O ; yields the recorded call
Found: inactive

Lookup: // param item: CNC(=O)c1ccc(N2C(=S)N(c3ccc(C#N)c(C(F)(F)F)c3)C(=O)C2(C)C)cc1F + Cc1nc(NC(=O)N2CCCC2C(N)=O)sc1-c1ccnc(C(C)(C)C(F)(F)F)c1 ; yields the recorded call
Found: inactive

Lookup: // param item: CC(C)NCC(C(=O)N1CCN(c2ncnc3c2C(C)CC3O)CC1)c1ccc(Cl)cc1 (stereo not given) + CC(Nc1ncnc2nc[nH]c12)c1cc2cccc(Cl)c2c(=O)n1-c1ccccc1 ; yields the recorded call
Found: inactive

Lookup: // param item: CC1(C)CCC(CN2CCN(c3ccc(C(=O)NS(=O)(=O)c4ccc(NCC5CCOCC5)c([N+](=O)[O-])c4)c(Oc4cnc5[nH]ccc5c4)c3)CC2)=C(c2ccc(Cl)cc2)C1 + CC(Nc1ncnc2nc[nH]c12)c1cc2cccc(Cl)c2c(=O)n1-c1ccccc1 ; yields the recorded call
Found: inactive

Lookup: // param item: CC(Cn1ccc(-c2ccc(C#N)c(Cl)c2)n1)NC(=O)c1cc(C(C)O)[nH]n1 (stereo not given) + CC(Nc1ncnc2nc[nH]c12)c1cc2cccc(Cl)c2c(=O)n1-c1ccccc1 ; yields the recorded call
Found: inactive

Lookup: // param item: CC1(C)CCC(Nc2ncc(C(F)(F)F)c(-c3c[nH]c4c(P(C)(C)=O)c(C#N)ccc34)n2)CN1 (stereo not given) + Cc1nc(NC(=O)N2CCCC2C(N)=O)sc1-c1ccnc(C(C)(C)C(F)(F)F)c1 ; yields the recorded call
Found: inactive

Lookup: // param item: Cn1nccc1Nc1nccc(-c2ccn(C(CO)c3ccc(Cl)c(F)c3)c(=O)c2)n1 (stereo not given) + Cc1nc(NC(=O)N2CCCC2C(N)=O)sc1-c1ccnc(C(C)(C)C(F)(F)F)c1 ; yields the recorded call
Found: inactive

Lookup: // param item: CC1(C)CCC(Nc2ncc(C(F)(F)F)c(-c3c[nH]c4c(P(C)(C)=O)c(C#N)ccc34)n2)CN1 (stereo not given) + CC(Nc1ccc2c(c1)OCCn1cc(N3C(=O)OCC3C(F)F)nc1-2)C(N)=O ; yields the recorded call
Found: inactive

Lookup: // param item: Cn1nccc1Nc1nccc(-c2ccn(C(CO)c3ccc(Cl)c(F)c3)c(=O)c2)n1 (stereo not given) + CC(Nc1ncnc2nc[nH]c12)c1cc2cccc(Cl)c2c(=O)n1-c1ccccc1 ; yields the recorded call
Found: inactive

Lookup: // param item: Cn1ncc(Cl)c1-c1cc(C(=O)NC(CN)Cc2cccc(F)c2)sc1Cl (stereo not given) + CC(Nc1ccc2c(c1)OCCn1cc(N3C(=O)OCC3C(F)F)nc1-2)C(N)=O ; yields the recorded call
Found: inactive

Lookup: // param item: Cn1nccc1Nc1nccc(-c2ccn(C(CO)c3ccc(Cl)c(F)c3)c(=O)c2)n1 (stereo not given) + COc1c(OCCCN2CCOCC2)ccc2c3n(c(=NC(=O)c4cnc(N)nc4)nc12)CCN3 ; yields the recorded call
Found: active

Lookup: // param item: CC1(C)CCC(CN2CCN(c3ccc(C(=O)NS(=O)(=O)c4ccc(NCC5CCOCC5)c([N+](=O)[O-])c4)c(Oc4cnc5[nH]ccc5c4)c3)CC2)=C(c2ccc(Cl)cc2)C1 + COc1c(OCCCN2CCOCC2)ccc2c3n(c(=NC(=O)c4cnc(N)nc4)nc12)CCN3 ; yields the recorded call
Found: active

Lookup: // param item: C=CC(=O)N1CCN(c2nc(=O)n(-c3c(C)ccnc3C(C)C)c3nc(-c4c(O)cccc4F)c(F)cc23)C(C)C1 (stereo not given) + CC(Nc1ncnc2nc[nH]c12)c1cc2cccc(Cl)c2c(=O)n1-c1ccccc1 ; yields the recorded call
Found: inactive
